Items are presented alongside their recorded % double-positive cells vs WT.
Molecular target: T1, mTfR-1 I334A on Expi293 cells (mouse, UniProt Q62351 1-763)
T1 construct: whole, on cells
T1 sequence (Q62351 whole entry I334A): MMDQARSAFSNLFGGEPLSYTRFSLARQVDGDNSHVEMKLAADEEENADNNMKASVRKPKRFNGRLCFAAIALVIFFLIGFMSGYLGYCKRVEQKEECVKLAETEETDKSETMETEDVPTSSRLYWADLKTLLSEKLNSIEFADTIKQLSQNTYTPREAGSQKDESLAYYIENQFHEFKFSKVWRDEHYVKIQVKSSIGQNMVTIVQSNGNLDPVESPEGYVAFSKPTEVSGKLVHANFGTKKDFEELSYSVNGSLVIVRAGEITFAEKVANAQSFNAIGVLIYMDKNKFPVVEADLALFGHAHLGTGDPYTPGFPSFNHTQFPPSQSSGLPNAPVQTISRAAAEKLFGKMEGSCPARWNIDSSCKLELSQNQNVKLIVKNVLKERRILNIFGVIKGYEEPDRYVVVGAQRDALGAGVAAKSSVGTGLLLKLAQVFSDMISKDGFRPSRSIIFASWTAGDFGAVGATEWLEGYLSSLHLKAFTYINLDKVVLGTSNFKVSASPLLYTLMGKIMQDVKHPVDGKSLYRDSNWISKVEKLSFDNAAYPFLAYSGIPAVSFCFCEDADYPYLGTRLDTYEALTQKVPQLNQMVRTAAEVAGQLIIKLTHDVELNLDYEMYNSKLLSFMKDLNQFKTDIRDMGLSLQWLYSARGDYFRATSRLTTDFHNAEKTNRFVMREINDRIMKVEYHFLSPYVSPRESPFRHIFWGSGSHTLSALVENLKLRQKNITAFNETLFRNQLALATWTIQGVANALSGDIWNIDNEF
Assay: FACS, transfected Expi293 cells; mutant poorly expressed
Respond numerically; units are % and should not be typed.

Past entries and their recorded results:
BINDER	% double-positive cells vs WT [%]
Clone C variant 13 VNAR-hFc (Fc fusion, not shown: a dimerising Fc or GST, also called Clone C v13; Clone C var; 13) ARVDQTPQTITKETGESLTINCVLRDSNCALSSTYWYRKKSGSTNEENISKGGRYVETVNSGSKSFSLRINDLTVEDSGTYRCNVVQYPQQDNYFWCDVYGDGTAVTVN	0
Clone C variant 18 VNAR-hFc (Fc fusion, not shown: a dimerising Fc or GST, also called Clone C v18; Clone C var; 18) ARVDQTPQTITKETGESLTINCVLRDSNCALSSTYWYRKKSGSTNEENISKGGRYVETVNSGSKSFSLRINDLTVEDSGTYRCNVVQYPQYPNYFWCDVYGDGTAVTVN	0
8D3 antibody (anti-mouse TfR-1 control; 8D3-hFc formatted antibody) (antibody, V domains shown) VH: EVQLVESGGGLVQPGNSLTLSCVASGFTFSNYGMHWIRQAPKKGLEWIAMIYYDSSKMNYADTVKGRFTISRDNSKNTLYLEMNSLRSEDTAMYYCAVPTSHYVVDVWGQGVSVTVSS VL: DIQMTQSPASLSASLEEIVTITCQASQDIGNWLAWYQQKPGKSPQLLIYGATSLADGVPSRFSGSRSGTQFSLKISRVQVEDIGIYYCLQAYNTPWTFGGGTKLELK	0

Exam item: Name the reported % double-positive cells vs WT value associated with the binder Clone C VNAR-hFc fusion (Fc fusion, not shown: a dimerising Fc or GST, bivalent VNAR-Fc; also called Clone C-hFc) ARVDQTPQTITKETGESLTINCVLRDSNCALSSTYWYRKKSGSTNEENISKGGRYVETVNSGSKSFSLRINDLTVEDSGTYRCNVVQYPSYNNYFWCDVYGDGTAVTVN
Marked response: 0
